Molecular target: UniProtKB P02489
Assay: Ca+2 and UVC induced aggregation of alpha-A crystalline (absorbance screen)
Type: biochemical
Conditions: 200 μM; Ca+2 and UVC induced aggregation of alpha-A crystalline; read-out: Percent protection (at 200 μM)
# key: entry, value: inhibition at 200 µM
quantity.kind: inhibition at 200 µM (%)

compound	quantity.kind	unit.abbreviation	result.value
CCC(CC)C(=O)NCCc1ccc(OC)c(OC)c1	inhibition at 200 µM	%	29
COc1ccc(CCNC(=O)C2CCN(C(=O)c3ccc(F)cc3)CC2)cc1OC	inhibition at 200 µM	%	41
O=C(O[C@H]1Cc2c(O)cc(O)cc2O[C@H]1c1cc(O)c(O)c(O)c1)c1cc(O)c(O)c(O)c1	inhibition at 200 µM	%	1
COc1cc2nc(N3CCN(C(=O)C4COc5ccccc5O4)CC3)nc(N)c2cc1OC (stereo not shown)	inhibition at 200 µM	%	114
COc1cc(C(=O)O)cc(OC)c1O	inhibition at 200 µM	%	7
C[C@](N)(Cc1ccc(O)c(O)c1)C(=O)O	inhibition at 200 µM	%	-5
O=c1c(O)c(-c2ccc(O)c(O)c2)oc2cc(O)cc(O)c12	inhibition at 200 µM	%	35
COC(=O)[C@@H](NC(C)=O)c1ccc(OC(C)=O)c(OC(C)=O)c1	inhibition at 200 µM	%	-4
COc1ccc(/C=C/C(C)=O)cc1OC	inhibition at 200 µM	%	21
COc1ccc(CCNC(=O)C2CCCCC2)cc1OC	inhibition at 200 µM	%	38

---

Target: alpha-A crystalline (Homo sapiens)
Sequence (P02489 1-173): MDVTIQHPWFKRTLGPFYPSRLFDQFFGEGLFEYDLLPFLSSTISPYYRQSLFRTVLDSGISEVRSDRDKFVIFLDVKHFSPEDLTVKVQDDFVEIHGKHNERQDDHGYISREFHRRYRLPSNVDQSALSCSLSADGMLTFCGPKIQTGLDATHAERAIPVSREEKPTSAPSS
Assay: Ca+2 and UVC induced aggregation of alpha-A crystalline (absorbance screen)
Assay type: biochemical
Conditions: 200 μM; Ca+2 and UVC induced aggregation of alpha-A crystalline
Each entry gets NOT MET if its Percent protection (at 200 μM) stays under 40%, and MET if its Percent protection (at 200 μM) is 40% or above.

compound	class
Oc1cc(O)c2c(c1)O[C@H](c1ccc(O)c(O)c1)[C@H](O)C2 [CAP3042]	NOT MET
COc1ccc(CCNC(=O)CCCC(=O)NCCc2ccc(OC)c(OC)c2)cc1OC [CAP1228]	MET
CC(CCc1ccc(O)cc1)NCCc1ccc(O)c(O)c1 (centres unmarked) [CAP1264]	NOT MET
COc1ccc(CCNC(=O)CCC2CCCCC2)cc1OC	MET
Oc1cc(O)c2c(c1)O[C@H](c1ccc(O)c(O)c1)[C@H](O)C2 [CAP3032]	NOT MET
Oc1cc(O)c2c(c1)O[C@H](c1ccc(O)c(O)c1)[C@H](O)C2 [CAP1049]	NOT MET
COc1ccc(CCNC(=O)CCCC(=O)NCCc2ccc(OC)c(OC)c2)cc1OC [CAP1278]	NOT MET
CC(CCc1ccc(O)cc1)NCCc1ccc(O)c(O)c1 (centres unmarked) [CAP1266]	NOT MET

---

Target: alpha-A crystalline (Homo sapiens, UniProt P02489)
Sequence (P02489 1-173): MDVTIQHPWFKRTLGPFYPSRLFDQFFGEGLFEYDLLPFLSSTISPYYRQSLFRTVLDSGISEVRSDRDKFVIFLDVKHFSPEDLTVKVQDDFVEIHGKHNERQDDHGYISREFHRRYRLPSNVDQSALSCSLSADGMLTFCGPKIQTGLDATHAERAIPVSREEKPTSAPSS
Assay: Ca+2 and UVC induced aggregation of alpha-A crystalline (absorbance screen)
Type: biochemical
Conditions: 200 μM; Ca+2 and UVC induced aggregation of alpha-A crystalline; read-out: Percent protection (at 200 μM)
quantity.kind: inhibition at 200 µM

molecule	result.value
COc1cc(/C=C/C(=O)CC(=O)/C=C/c2ccc(O)c(OC)c2)ccc1O	4%
Oc1ccc(C2CNCCc3c2cc(O)c(O)c3Cl)cc1 (stereo not shown)	-16%
Cc1ccc(C(=O)c2cc(O)c(O)c([N+](=O)[O-])c2)cc1	65%
Oc1ccc(CCNCCCCCCNCCc2ccccc2)cc1O	-47%
COc1cc2cc[nH]c2cc1OC	9%
Oc1cc(O)c2c(c1)O[C@H](c1ccc(O)c(O)c1)[C@@H](O)C2	-17%
CNC[C@H](O)c1ccc(O)c(O)c1	-5%
O=C(O)/C=C/c1ccc(O)c(O)c1	16%
COc1cc(CNc2cccc(C)n2)cc([N+](=O)[O-])c1O	12%
CCN(CC)C(=O)/C(C#N)=C/c1cc(O)c(O)c([N+](=O)[O-])c1	27%

---

Assay: Solubility with FDA approved excipients
Type: physicochemical
Settings: aqueous with cosolvent or surfactant or cyclodextrin, Solubility in water with (2-hydroxypropyl)-beta cyclodextrin mg/ml (1:1)
quantity.kind: solubility (µg/mL)

query.smiles	unit.abbreviation	result.value
Cc1ccc(C(=O)c2cc(O)c(O)c([N+](=O)[O-])c2)cc1	µg/mL	2000

---

Experiment: Solubility with FDA approved excipients
Type: physicochemical
Settings: water, Solubility in water mg/ml

query.smiles	solubility / µg/mL
Cc1ccc(C(=O)c2cc(O)c(O)c([N+](=O)[O-])c2)cc1	100

---

Molecular target: UniProt P02489
Test: Ca+2 and UVC induced aggregation of alpha-A crystalline (absorbance screen)
Assay type: biochemical
Settings: 200 μM; Ca+2 and UVC induced aggregation of alpha-A crystalline; read-out: Percent protection (at 200 μM)
Measured inhibition at 200 µM values are reported for all entries that follow.
quantity.kind: inhibition at 200 µM (%)

molecule	quantity.kind	unit.abbreviation	result.value
CC(=O)/C=C/c1ccc(O)c(O)c1	inhibition at 200 µM	%	-32
COc1cc(/C=C/C(=O)/C=C(O)/C=C/c2ccc(O)c(OC)c2)ccc1O	inhibition at 200 µM	%	-95
COc1cc2cc(C(=O)O)[nH]c2cc1OC	inhibition at 200 µM	%	22
O=C(OC[C@H]1OC(OC(=O)c2cc(O)c(O)c(OC(=O)c3cc(O)c(O)c(O)c3)c2)[C@H](OC(=O)c2cc(O)c(O)c(OC(=O)c3cc(O)c(O)c(O)c3)c2)[C@@H](OC(=O)c2cc(O)c(O)c(OC(=O)c3cc(O)c(O)c(O)c3)c2)[C@@H]1OC(=O)c1cc(O)c(O)c(OC(=O)c2cc(O)c(O)c(O)c2)c1)c1cc(O)c(O)c(OC(=O)c2cc(O)c(O)c(O)c2)c1 (stereo partly drawn)	inhibition at 200 µM	%	76
COc1ccc(CCNC(=O)C2CCC2)cc1OC	inhibition at 200 µM	%	72
NCCc1ccc(O)c(O)c1	inhibition at 200 µM	%	-6
COc1ccc(CCNC(=O)CCCC2CCCC2)cc1OC	inhibition at 200 µM	%	-2
O=C(O)[C@H]1OC(Oc2cc3oc(-c4ccccc4)cc(=O)c3c(O)c2O)[C@H](O)[C@@H](O)[C@@H]1O (stereo partly drawn)	inhibition at 200 µM	%	3
COc1ccc(CCNC(=O)CC23CC4CC(CC(C4)C2)C3)cc1OC	inhibition at 200 µM	%	64
O=C(NCCc1ccccc1)C1CCC(C(=O)NCCc2ccccc2)CC1 (stereo not drawn)	inhibition at 200 µM	%	44
COc1ccc(/C=C/C(=O)O)cc1OC	inhibition at 200 µM	%	12
COc1ccc(CCNC(=O)CCCCC(=O)NCCc2ccc(OC)c(OC)c2)cc1OC	inhibition at 200 µM	%	50
O=C(c1cc(O)c(O)c([N+](=O)[O-])c1)c1ccccc1F	inhibition at 200 µM	%	56
O=C1c2ccccc2C(=O)c2c1cc(S(=O)(=O)O)c(O)c2O	inhibition at 200 µM	%	53
O=C(CC1CCC1)NCCc1ccc(O)c(O)c1	inhibition at 200 µM	%	23
O=C1c2ccccc2C(=O)c2c1ccc(S(=O)(=O)O)c2O	inhibition at 200 µM	%	20
O=C1O[C@H]([C@@H](O)CO)C(O)=C1O	inhibition at 200 µM	%	-2
COc1cc(/C=N/c2cccc(C)n2)cc([N+](=O)[O-])c1O	inhibition at 200 µM	%	19

---

Assay: Solubility with FDA approved excipients
Type: physicochemical
Details: aqueous with cosolvent or surfactant or cyclodextrin, solubility
quantity.kind: solubility (µg/mL)

compound	result.value
Cc1ccc(C(=O)c2cc(O)c(O)c([N+](=O)[O-])c2)cc1 [CAP1160, Tolcapone]	1500

---

Biological target: alpha-A crystalline (Homo sapiens, UniProt P02489)
Experiment: Ca+2 and UVC induced aggregation of alpha-A crystalline (absorbance screen);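 also: recombinant human alpha-A crystallin (500 µg/ml) preincubated 30 min with compound, then UV-induced aggregation tracked by absorbance at time points from 0 to 120 min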
Assay type: biochemical
Conditions: 200 μM; Ca+2 and UVC induced aggregation of alpha-A crystalline; read-out: Percent protection (at 200 μM)
quantity.kind: inhibition at 200 µM (%)

compound	quantity.kind	unit.abbreviation	result.value
O=C(NCCc1ccc(O)c(O)c1)C12CC3CC(CC(C3)C1)C2 [CAP1057]	inhibition at 200 µM	%	-8
Oc1cc(O)c2c(c1)O[C@@H](c1ccc(O)c(O)c1)[C@@H](O)C2 [CAP1458]	inhibition at 200 µM	%	-17
COc1ccc(CCNC(=O)C2CC2)cc1OC [CAP1230]	inhibition at 200 µM	%	18
O=C1c2ccc(S(=O)(=O)O)c(O)c2C(=O)c2ccc(S(=O)(=O)O)c(O)c21 [CAP1219]	inhibition at 200 µM	%	-5
COc1ccc(CCNC(=O)C2CCN(C(=O)Cc3ccccc3)CC2)cc1OC [CAP1227]	inhibition at 200 µM	%	46
NC(=O)c1ncn([C@@H]2O[C@H](CO)[C@@H](O)[C@H]2O)n1 [CAP1380]	inhibition at 200 µM	%	16
COc1ccc(CCNC(=O)C2CCCC2)cc1OC [CAP1231]	inhibition at 200 µM	%	51
